Test system: Mus musculus
Assay: Analgesic activity against p-benzoquinone-induced abdominal constriction in Swiss albino mouse assessed as number of writhings at 25 mg/kg, po
Format: functional, Abdomen
RECORDED_METRIC: Activity
Please state the value as a number alone, without comment.

Sample answers from the record:
CSc1nnc(-c2ccc(Cl)cc2)[nH]1    44.7
CCS(=O)(=O)c1nc(-c2ccc(Br)cc2)n[nH]1    40.9
CCS(=O)(=O)c1nc(-c2ccccc2Cl)n[nH]1    38.2
CCSc1nc(-c2ccc(Cl)cc2)n[nH]1    45.1
CS(=O)(=O)c1nc(-c2ccc(Cl)cc2)n[nH]1    42.8
CCS(=O)(=O)c1nc(-c2ccccc2)n[nH]1    38.2
CS(=O)(=O)c1nc(-c2ccccc2Cl)n[nH]1    40.1
CCSc1nc(-c2ccccc2Cl)n[nH]1    48.5

Given the compound CCS(=O)(=O)c1nc(-c2ccc(Cl)cc2)n[nH]1 and test system Mus musculus, the measured Activity is 37.8

###

System: Mus musculus
Assay: Antiinflammatory activity against carrageenan-induced paw edema in Swiss albino mouse assessed as swelling thickness at 200 mg/kg, po after 270 mins
Format: functional
Each item that follows carries a reported Activity.

CCSc1nc(-c2ccc(Cl)cc2)n[nH]1    63.5 10^-2mm
CCS(=O)(=O)c1nc(-c2ccccc2)n[nH]1    57.6 10^-2mm
CS(=O)(=O)c1nc(-c2ccccc2Cl)n[nH]1    59.8 10^-2mm
CCSc1nc(-c2ccccc2Cl)n[nH]1    67.9 10^-2mm
CCS(=O)(=O)c1nc(-c2ccc(Cl)cc2)n[nH]1    55.4 10^-2mm

Given the compound CCS(=O)(=O)c1nc(-c2ccc(Br)cc2)n[nH]1 and test system Mus musculus, the measured Activity is 68.5 10^-2mm

Given the compound CS(=O)(=O)c1nc(-c2ccc(Cl)cc2)n[nH]1 and test system Mus musculus, the measured Activity is 69.4 10^-2mm

Given the compound CCS(=O)(=O)c1nc(-c2ccccc2Cl)n[nH]1 and test system Mus musculus, the measured Activity is 51.9 10^-2mm

Given the compound CSc1nnc(-c2ccc(Cl)cc2)[nH]1 and test system Mus musculus, the measured Activity is 65.9 10^-2mm

###

Tested on: Mus musculus
Test: Inhibition of carrageenan-induced paw edema in Swiss albino mouse at 100 mg/kg, po after 360 mins relative to control
Type: functional
Settings: 6 h
Please use TRUE whenever inhibition in vivo at 100 mg/kg is not below 40%, and FALSE whenever it is.

CCS(=O)(=O)c1nc(-c2ccccc2Cl)n[nH]1    TRUE
CCSc1nc(-c2ccccc2Cl)n[nH]1    FALSE
CS(=O)(=O)c1nc(-c2ccc(Cl)cc2)n[nH]1    FALSE
CS(=O)(=O)c1nc(-c2ccccc2Cl)n[nH]1    FALSE
CCS(=O)(=O)c1nc(-c2ccccc2)n[nH]1    FALSE
CCSc1nc(-c2ccc(Cl)cc2)n[nH]1    FALSE
CSc1nc(-c2ccccc2)n[nH]1    FALSE
CCS(=O)(=O)c1nc(-c2ccc(Br)cc2)n[nH]1    FALSE

With those in mind, consider the next molecule.
[in] Identify whether the reported inhibition in vivo at 100 mg/kg of the following molecule is 40% or greater: CSc1nnc(-c2ccc(Cl)cc2)[nH]1
[out] FALSE

###

Tested on: Mus musculus
Test: Inhibition of p-benzoquinone-induced writhing in Swiss albino mouse at 200 mg/kg, po relative to control
Type: functional
RECORDED_METRIC: inhibition in vivo at 200 mg/kg (%)
Your answer is read as %, so omit the unit and give the number.

CS(=O)(=O)c1nc(-c2ccccc2Cl)n[nH]1    11.9
CCSc1nc(-c2ccccc2Cl)n[nH]1    19.6
CCS(=O)(=O)c1nc(-c2ccccc2)n[nH]1    5.6
CS(=O)(=O)c1nc(-c2ccc(Cl)cc2)n[nH]1    8.9
CSc1nnc(-c2ccc(Cl)cc2)[nH]1    15.8
CCSc1nc(-c2ccc(Cl)cc2)n[nH]1    12.8

For the next question, use this compound.
Field inhibition in vivo at 200 mg/kg (entry CCS(=O)(=O)c1nc(-c2ccc(Cl)cc2)n[nH]1 ) reads 18.5

###

Tested on: Mus musculus
Experiment: Inhibition of carrageenan-induced paw edema in Swiss albino mouse at 200 mg/kg, po after 270 mins relative to control
Assay type: functional
Settings: 4.5 h
Each item that follows carries a reported inhibition in vivo at 200 mg/kg.
Your answer is read as %, so omit the unit and give the number.

CCS(=O)(=O)c1nc(-c2ccccc2Cl)n[nH]1    19.9

For the next question, use this molecule.
Field inhibition in vivo at 200 mg/kg (entry CCS(=O)(=O)c1nc(-c2ccccc2)n[nH]1 ) reads 11.1

###

System: Mus musculus
Test: Inhibition of carrageenan-induced paw edema in Swiss albino mouse at 25 mg/kg, po after 180 mins relative to control
Assay type: functional
Settings: 3 h
Please use fulfilled whenever inhibition in vivo at 25 mg/kg is not below 8%, and not fulfilled whenever it is.

The following compounds have reported results that may help.
CCS(=O)(=O)c1nc(-c2ccc(Cl)cc2)n[nH]1    fulfilled
CCS(=O)(=O)c1nc(-c2ccccc2Cl)n[nH]1    fulfilled
CCSc1nc(-c2ccccc2Cl)n[nH]1    not fulfilled
CCSc1nc(-c2ccc(Cl)cc2)n[nH]1    fulfilled
CSc1nnc(-c2ccc(Cl)cc2)[nH]1    fulfilled

[in] Identify whether the reported inhibition in vivo at 25 mg/kg of the following compound is 8% or greater: CCS(=O)(=O)c1nc(-c2ccccc2)n[nH]1
[out] not fulfilled

[in] Identify whether the reported inhibition in vivo at 25 mg/kg of the following compound is 8% or greater: CS(=O)(=O)c1nc(-c2ccccc2Cl)n[nH]1
[out] not fulfilled

###

Test system: Mus musculus
Assay: Inhibition of carrageenan-induced paw edema in Swiss albino mouse at 50 mg/kg, po after 180 mins relative to control
Type: functional
Conditions: 3 h
RECORDED_METRIC: inhibition in vivo at 50 mg/kg (%)
Your answer is read as %, so omit the unit and give the number.

Sample answers from the record:
CS(=O)(=O)c1nc(-c2ccc(Cl)cc2)n[nH]1    22.2
CCS(=O)(=O)c1nc(-c2ccccc2Cl)n[nH]1    39.7
CSc1nnc(-c2ccc(Cl)cc2)[nH]1    30.6

Given the molecule CS(=O)(=O)c1nc(-c2ccccc2Cl)n[nH]1 and test system Mus musculus, the measured inhibition in vivo at 50 mg/kg is 30.6

Given the molecule CCS(=O)(=O)c1nc(-c2ccccc2)n[nH]1 and test system Mus musculus, the measured inhibition in vivo at 50 mg/kg is 30.5

Given the molecule CCSc1nc(-c2ccc(Cl)cc2)n[nH]1 and test system Mus musculus, the measured inhibition in vivo at 50 mg/kg is 27.3

Given the molecule CCSc1nc(-c2ccccc2Cl)n[nH]1 and test system Mus musculus, the measured inhibition in vivo at 50 mg/kg is 27.9

Given the molecule CCS(=O)(=O)c1nc(-c2ccc(Cl)cc2)n[nH]1 and test system Mus musculus, the measured inhibition in vivo at 50 mg/kg is 39.2

Given the molecule CCS(=O)(=O)c1nc(-c2ccc(Br)cc2)n[nH]1 and test system Mus musculus, the measured inhibition in vivo at 50 mg/kg is 26.8

###

System: Mus musculus
Assay: Inhibition of p-benzoquinone-induced writhing in Swiss albino mouse at 50 mg/kg, po relative to control
Type: functional
Each item that follows carries a reported inhibition in vivo at 50 mg/kg.
Your answer is read as %, so omit the unit and give the number.

CCS(=O)(=O)c1nc(-c2ccc(Br)cc2)n[nH]1    30.2
CSc1nnc(-c2ccc(Cl)cc2)[nH]1    33.7
CCS(=O)(=O)c1nc(-c2ccccc2)n[nH]1    48.1
CCS(=O)(=O)c1nc(-c2ccccc2Cl)n[nH]1    54.5
CS(=O)(=O)c1nc(-c2ccccc2Cl)n[nH]1    40.9

Field inhibition in vivo at 50 mg/kg (entry CCS(=O)(=O)c1nc(-c2ccc(Cl)cc2)n[nH]1 ) reads 59.5

Field inhibition in vivo at 50 mg/kg (entry CS(=O)(=O)c1nc(-c2ccc(Cl)cc2)n[nH]1 ) reads 42.8

Field inhibition in vivo at 50 mg/kg (entry CCSc1nc(-c2ccccc2Cl)n[nH]1 ) reads 26.4

Field inhibition in vivo at 50 mg/kg (entry CCSc1nc(-c2ccc(Cl)cc2)n[nH]1 ) reads 33.5

###

System: Mus musculus
Test: Inhibition of carrageenan-induced paw edema in Swiss albino mouse at 200 mg/kg, po after 360 mins relative to control
Assay type: functional
Conditions: 6 h
RECORDED_METRIC: inhibition in vivo at 200 mg/kg (%)
Your answer is read as %, so omit the unit and give the number.

Sample answers from the record:
CCSc1nc(-c2ccc(Cl)cc2)n[nH]1    3.4
CS(=O)(=O)c1nc(-c2ccccc2Cl)n[nH]1    9.6
CCS(=O)(=O)c1nc(-c2ccccc2)n[nH]1    9.4
CCS(=O)(=O)c1nc(-c2ccc(Cl)cc2)n[nH]1    18.9

For the next question, use this molecule.
Field inhibition in vivo at 200 mg/kg (entry CCS(=O)(=O)c1nc(-c2ccccc2Cl)n[nH]1 ) reads 21.5

Measured values drawn from ChEMBL document CHEMBL1142894 for this set.
